Counter-ions that a name gives are not always drawn.
measurement-type: melting point

Task item: Answer with reported melting point of Cc1ccsc1C1CC(=O)N(CCCN2CCN(c3ccc(F)cc3)CC2)C1=O (racemic) (as salt: hydrochloride)
Reply: 160 to 162 °C

Task item: Tell me melting point reported for Cc1ccsc1C1CC(=O)N(CC(=O)N2CCN(c3ccc(Cl)cc3)CC2)C1=O (racemic)
Reply: 179 to 181 °C

Task item: Item Cc1ccsc1C1CC(=O)N(CC(=O)N2CCN(c3ccccc3Cl)CC2)C1=O (racemic) : provide melting point
Reply: 141 to 143 °C

Here are 2 compounds. What values of melting point were reported for them?
1. Cc1ccsc1C1CC(=O)N(CC(=O)N2CCN(c3ccc(F)cc3)CC2)C1=O (racemic)
2. Cc1ccsc1C1CC(=O)N(CC(=O)N2CCOCC2)C1=O (racemic)

Reply:
165 to 166 °C
142 to 144 °C

Every entry's value here was drawn from paper PMC7461116.
